- TARGET_SYSTEM: Proteasome chymotrypsin-like activity (S26 protein from RPMI8226 cells) (Homo sapiens, UniProt P28074)
- Sequence (P28074 60-263 limits assumed): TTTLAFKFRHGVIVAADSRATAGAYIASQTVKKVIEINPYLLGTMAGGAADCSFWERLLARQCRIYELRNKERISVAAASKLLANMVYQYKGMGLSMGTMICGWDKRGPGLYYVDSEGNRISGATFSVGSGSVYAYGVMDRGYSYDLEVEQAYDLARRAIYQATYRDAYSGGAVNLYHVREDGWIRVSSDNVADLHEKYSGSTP
pIC50: −log10 of the molar value.
RECORDED_METRIC: pIC50

Query :: Return pIC50 for the following compound: CC(C)C[C@H](NC(=O)C12CCCC1C(CNC(=O)c1nccc3ccccc13)=NO2)B(O)O (stereo partly drawn)
Result :: > 7.00

Query :: Answer with reported pIC50 of Cc1cc(C(=O)NCC2=NOC(Cc3ccccc3)(C(=O)N[C@@H](CC(C)C)B(O)O)C2)n(C2CCCC2)n1 (stereo partly drawn)
Result :: > 8.00

Query :: Note pIC50 for the compound shown: CC(C)C[C@H](NC(=O)C1(Cc2ccccc2)CC(CNC(=O)c2nn(C)c3ccccc23)=NO1)B(O)O (stereo partly drawn)
Result :: > 8.00

Query :: Consider the compound CC(C)C[C@H](NC(=O)C1(Cc2ccccc2)CC(CNC(=O)c2cocn2)=NO1)B(O)O (stereo partly drawn) and give its recorded pIC50.
Result :: > 7.60

Query :: Specify pIC50 for CC(C)C[C@H](NC(=O)C1(Cc2ccccc2)CC(CNC(=O)c2ccnn2C2CCOCC2)=NO1)B(O)O (stereo partly drawn) and stop.
Result :: > 8.00

Query :: Specify pIC50 for CC(C)C[C@H](NC(=O)C1(Cc2ccccc2)CC(CNC(=O)c2cc(C(C)C)nn2C(C)C)=NO1)B(O)O (stereo partly drawn) and stop.
Result :: > 8.00

Query :: Give pIC50 for the following compound: CC[C@H](NC(=O)C1(Cc2ccccc2)CC(CNC(=O)c2cccc(Cl)n2)=NO1)B(O)O (stereo partly drawn)
Result :: > 7.60

Query :: Hello, please tell me recorded pIC50 for this one: COC[C@H](NC(=O)c1cccc(C)n1)C1=NOC(Cc2ccccc2)(C(=O)N[C@@H](CC(C)C)B(O)O)C1 (stereo partly drawn)
Result :: > 7.30

Query :: Annotate the compound CC(C)C[C@H](NC(=O)C1(Cc2ccccc2)CC(CNC(=O)c2cc(F)cnc2Cl)=NO1)B(O)O (stereo partly drawn) with its measured pIC50.
Result :: > 8.00

Query :: Give the reported value of pIC50 for this record: CC[C@H](NC(=O)C1(Cc2ccccc2)CC(CNC(=O)c2cc(Cl)ccc2Cl)=NO1)B(O)O (stereo partly drawn)
Result :: > 8.00

Query :: Identify the reported pIC50 for the following entry. CC(C)C[C@H](NC(=O)C1(Cc2ccccc2)CC(CCNC(=O)c2nccc3ccccc23)=NO1)B(O)O (stereo partly drawn)
Result :: > 8.00

Query :: Please give the documented pIC50 of CCC1(C(=O)N[C@@H](CC(C)C)B(O)O)CC(c2ccccc2)=NO1 (stereo partly drawn)
Result :: < 6.00

Query :: Report measured pIC50; entry is CC(C)C[C@H](NC(=O)C1CC([C@H](CC(C)C)NC(=O)c2nccc3ccccc23)=NO1)B(O)O (stereo partly drawn)
Result :: > 7.60

Query :: State its pIC50 for this compound: CC(C)C[C@H](NC(=O)C1CC(c2cccc(Oc3ccccn3)c2)=NO1)B(O)O (stereo partly drawn)
Result :: > 6.60

Query :: Answer with the recorded pIC50 for the compound listed here: Cc1cccc(COCC2=NOC(Cc3ccccc3)(C(=O)N[C@@H](Cc3ccccc3)B(O)O)C2)c1 (stereo partly drawn)
Result :: > 8.00
